tested on: OVCAR-4; test: NCI tumour cell line growth inhibition, 48 h
Calls of active or inactive are those of the source. Cut-off read from the data, not from the text of the source: active = GI50 up to about 1.1 µM and inactive = higher.
Each record here notes measured GI50.

Answered cases to consult:
O=c1c2cc([N+](=O)[O-])cnc2sn1-c1ccc(Br)cc1: 24.5 µM (inactive)
CC(C)C(Nc1c2ccccc2[n+]([O-])c2ccccc12)C(=O)O (configuration not stated): 65.8 µM (inactive)
CCN1C[C@]2(C)CC[C@H](OCc3ccccc3)C34C5C[C@@H]6CC[C@](O)(C(C[C@@H]32)C14)C5[C@H]6OCc1ccccc1 (some centres not stated): 85.1 µM (inactive)
C1CN2CCN3CCN4CCN1[PH]243: > 100 µM (inactive)
Cc1cc(=O)oc2cc(OCc3nc4ccccc4c(=O)n3-c3ccccc3)ccc12: > 100 µM (inactive)
COc1ncc(C#CC(=O)c2ccccc2OC)c(OC)n1: 5.78 µM (inactive)
C/N=C/N(C)c1c2ccccc2nc2ccccc12: > 100 µM (inactive)
Fc1ccc(C(OCCN2CC3CC2CN3)c2ccc(F)cc2)cc1 (configuration not stated): > 100 µM (inactive)
CCCCCCCCCCOc1ccc(/N=N/c2nnc(-c3ccc(OCCCCC)cc3)s2)cc1: > 100 µM (inactive)
CC1=C(Oc2ccccc2)C(CCC(=O)O)c2c(O)cc(Cl)c(O)c21 (configuration not stated): > 100 µM (inactive)

# input What value of GI50 has been recorded for this entry: NC(=O)C(=CNC(=S)Nc1ccc(S(=O)(=O)Nc2ccccn2)cc1)C(N)=O
# output > 100 µM (inactive)

# input Then what about the molecule C/C(=C/C(=O)N(C)c1ccccc1Cl)O[Si](C(C)C)(C(C)C)C(C)C ?
# output 61.2 µM (inactive)

# input Then what about the molecule CC(=O)Oc1c(C)cc2c(c1C)C(C)CN2C(C)=O (configuration not stated) ?
# output > 100 µM (inactive)

# input Then what about the molecule COc1cccc(-c2cc(C(=O)Nc3ccc(Cl)cc3)nc(N)n2)c1 ?
# output > 100 µM (inactive)

# input Then what about the molecule Cc1c2ccccc2c(C)n2c1nc1cc3ccccc3cc12 ?
# output 1.56 µM (inactive)

# input Then what about the molecule CCP(=O)(CC)C(Cl)(Cl)C(=O)NC ?
# output > 100 µM (inactive)

# input Then what about the molecule CC(=O)Nc1cccc(N2C(=O)/C(=C\c3cccc(Oc4ccccc4)c3)S(=O)(=O)C2c2ccccc2)c1 (configuration not stated) ?
# output 25.2 µM (inactive)

# input Then what about the molecule N#C/C(=C\c1cc(Br)c(O)c(Br)c1)c1cccnc1 ?
# output 33.3 µM (inactive)
